Entry source: ChEMBL document CHEMBL3817731

Answer each item with its documented MIC.
- System: Candida albicans
- Test: Antifungal activity against Candida albicans ATCC MYA-1237 after 48 hrs by CLSI M27-A3 method
- Type: functional
- Condition: ATCC MYA-1237, 48 h

For `C#CCOc1ccc(-c2nc3ccc(N4CCN(C)CC4)cc3[nH]2)cc1` the compound record lists MIC as > 31.2 µg/mL

For `CCCN1CCN(c2ccc3nc(-c4ccc5nc(-c6ccc(OCC)cc6)[nH]c5c4)[nH]c3c2)CC1` the compound record lists MIC as > 31.2 µg/mL

For `CCCCCN1CCN(c2ccc3nc(-c4ccc5nc(-c6ccc(OC)cc6)[nH]c5c4)[nH]c3c2)CC1` the compound record lists MIC as > 31.2 µg/mL

For `CCOc1ccc(-c2nc3cc(-c4nc5cc(N6CCN(C)CC6)ccc5[nH]4)ccc3[nH]2)cc1` the compound record lists MIC as 7.8 µg/mL

For `CCCCCCCCCCCCOc1ccc(-c2nc3ccc(-c4nc5ccc(N6CCN(C)CC6)cc5[nH]4)cc3[nH]2)cc1` the compound record lists MIC as > 31.2 µg/mL

For C[C@@H]1[C@H](O)[C@@H](C)/C=C/C=C/C=C/C=C/C=C/C=C/C=C/[C@H](O[C@@H]2O[C@H](C)[C@@H](O)[C@H](N)[C@@H]2O)C[C@@H]2O[C@](O)(C[C@@H](O)C[C@@H](O)[C@H](O)CC[C@@H](O)C[C@@H](O)CC(=O)O[C@H]1C)C[C@H](O)[C@H]2C(=O)O [AMPHOTERICIN B] the compound record lists MIC as 3.9 µg/mL

For `C#CCOc1ccc(-c2nc3ccc(-c4nc5ccc(N6CCN(C)CC6)cc5[nH]4)cc3[nH]2)cc1` the compound record lists MIC as > 31.2 µg/mL

----------
- Tested on: Candida albicans
- Test: Antifungal activity against Candida albicans ATCC MYA-1237 after 48 hrs by CLSI M27-A3 method
- Type: functional
- Condition: ATCC MYA-1237, 48 h
Observation type: MIC

For `CC[C@@H]([C@H](C)O)n1ncn(-c2ccc(N3CCN(c4ccc(OC[C@@H]5CO[C@@](Cn6cncn6)(c6ccc(F)cc6F)C5)cc4)CC3)cc2)c1=O` the compound record lists MIC as 15.6 µg/mL

For `CCN1CCN(c2ccc3nc(-c4ccc5nc(-c6ccc(OC)cc6)[nH]c5c4)[nH]c3c2)CC1` the compound record lists MIC as > 31.2 µg/mL

For `C#CCOc1ccc(-c2nc3ccc(-c4nc5ccc(-c6nc7ccc(N8CCN(C)CC8)cc7[nH]6)cc5[nH]4)cc3[nH]2)cc1` the compound record lists MIC as > 31.2 µg/mL

----------
- System: Candida albicans
- Test: Antifungal activity against Candida albicans ATCC MYA-1237 after 48 hrs by CLSI M27-A3 method
- Type: functional
- Condition: ATCC MYA-1237, 48 h
Observation type: MIC

Fill in: Candida albicans MIC for `CN1CCN(c2ccc3nc(-c4ccc5nc(-c6ccc(OCCO)cc6)[nH]c5c4)[nH]c3c2)CC1` = > 31.2 µg/mL

Fill in: Candida albicans MIC for `CCCN1CCN(c2ccc3nc(-c4ccc5nc(-c6ccc(O)cc6)[nH]c5c4)[nH]c3c2)CC1` = 31.2 µg/mL

Fill in: Candida albicans MIC for `C#CCOc1ccc(-c2nc3ccc(-c4nc5ccc(N6CCN(CCC)CC6)cc5[nH]4)cc3[nH]2)cc1` = > 31.2 µg/mL

Fill in: Candida albicans MIC for `COc1ccc(-c2nc3cc(-c4nc5cc(N6CCN(C)CC6)ccc5[nH]4)ccc3[nH]2)cc1` = 15.6 µg/mL

Fill in: Candida albicans MIC for `CCOc1ccc(-c2nc3ccc(-c4nc5ccc(N6CCN(CC)CC6)cc5[nH]4)cc3[nH]2)cc1` = 15.6 µg/mL

Fill in: Candida albicans MIC for `CCCCCCCCCCCCN1CCN(c2ccc3nc(-c4ccc5nc(-c6ccc(O)cc6)[nH]c5c4)[nH]c3c2)CC1` = > 31.2 µg/mL

Fill in: Candida albicans MIC for `CCCN1CCN(c2ccc3nc(-c4ccc5nc(-c6ccc(OC)cc6)[nH]c5c4)[nH]c3c2)CC1` = > 31.2 µg/mL

Fill in: Candida albicans MIC for CCC(C)n1ncn(-c2ccc(N3CCN(c4ccc(OCC5COC(Cn6cncn6)(c6ccc(Cl)cc6Cl)O5)cc4)CC3)cc2)c1=O (stereo not drawn) [ITRACONAZOLE] = 31.2 µg/mL
